Biological target: T1, GLD-1(135-336) (Caenorhabditis elegans, UniProt Q17339 135-336)
T1 sequence: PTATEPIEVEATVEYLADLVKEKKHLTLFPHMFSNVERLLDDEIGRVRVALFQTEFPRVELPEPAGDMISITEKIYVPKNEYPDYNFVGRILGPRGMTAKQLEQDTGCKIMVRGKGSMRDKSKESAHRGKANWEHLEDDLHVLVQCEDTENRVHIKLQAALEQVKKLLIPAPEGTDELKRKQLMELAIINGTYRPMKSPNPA
Test: F-EMSA
quantity: Kd (nM)
Hi! Could you send only the number? It should be in nM, unit omitted.

Exercise: Name the recorded Kd for UUUUUCUUAUUCUAGACUAAUAUUGUAAGCU (ssRNA) [glp-1 WT] .
Key: 70

Every entry's value here was drawn from paper PMC3510010.
